Measurement Protocol: In vivo antitumor assay, Mam16C(sc)
Design: species or system mouse
Measurement Context: mouse, in vivo, drug route iv, qd 1, bid 2,3
From the text: Mice: Inbred: C3H/He and NCR-nu; and Hybrids: B6D2Fl (C57BL/6 females X DBA/2 males, CD2Fl (Balb/c females X DBS/2 males) and B6x C3fl (C57BL/6 x C3H) were bred at Wayne State University from strained obtained from the Frederick Cancer Research Facility, Frederick, Md. or purchased from commercial suppliers. […] Quantitative end points used assess antitumor activity included % Increased Life Span (% ILS), Tumor Cell Kill (Log10 kill), and Tumor Growth Inhibition (T/C). […]
Quantity: MTD (mg/kg)
Write the answer as a number in mg/kg, unit excluded.

Record request: MTD value, item Cc1cc(-c2c(F)cc3c(=O)c(Cc4c(O)cccc4O)cn(C4CC4)c3c2F)cc(C)n1 15

----------
Measurement Protocol: In vivo antitumor assay, P388(ip)
Measurement Context: mouse, in vivo; P388(ip), drug route iv, qd 1,5,9
In this section, each of the compounds is paired with its reported MTD.
Note: a bare number is incomplete; add the unit.

Record request: MTD value, item Cc1cc(-c2c(F)cc3c(=O)c(Cc4c(O)cccc4O)cn(C4CC4)c3c2F)cc(C)n1 [Example 26] 15 mg/kg

Next:
Record request: MTD value, item Cc1cc(-c2c(F)cc3c(=O)c(Cc4ccccc4O)cn(C4CC4)c3c2F)cc(C)n1 [Example 30] 120 mg/kg

----------
Measurement Protocol: In vivo antitumor assay, B16(ip)
Design: species or system mouse
Measurement Context: mouse, in vivo, drug route ip, qd 1,5,9
Quantity: MTD
Note: a bare number is incomplete; add the unit.

Record request: MTD value, item Cc1cc(-c2c(F)cc3c(=O)c(Cc4ccc(O)cc4O)cn(C4CC4)c3c2F)cc(C)n1 [Example 33] 19 mg/kg

Next:
Record request: MTD value, item Cc1cc(-c2c(F)cc3c(=O)c(Cc4c(O)cccc4O)cn(C4CC4)c3c2F)cc(C)n1 [Example 26] 8.1 mg/kg

Record request: MTD value, item Cc1cc(-c2c(F)cc3c(=O)c(Cc4ccccc4O)cn(C4CC4)c3c2F)cc(C)n1 [Example 30] 304 mg/kg

----------
Measured Target: human topoisomerase II (Homo sapiens)
Construct: Topo II was purified from late log phase suspension cultures of HeLa WIS; endogenous in cells; host or cells: HeLa WIS suspension cultures, late log phase (enzyme purified from the cells)
Sequence (P11388 whole entry): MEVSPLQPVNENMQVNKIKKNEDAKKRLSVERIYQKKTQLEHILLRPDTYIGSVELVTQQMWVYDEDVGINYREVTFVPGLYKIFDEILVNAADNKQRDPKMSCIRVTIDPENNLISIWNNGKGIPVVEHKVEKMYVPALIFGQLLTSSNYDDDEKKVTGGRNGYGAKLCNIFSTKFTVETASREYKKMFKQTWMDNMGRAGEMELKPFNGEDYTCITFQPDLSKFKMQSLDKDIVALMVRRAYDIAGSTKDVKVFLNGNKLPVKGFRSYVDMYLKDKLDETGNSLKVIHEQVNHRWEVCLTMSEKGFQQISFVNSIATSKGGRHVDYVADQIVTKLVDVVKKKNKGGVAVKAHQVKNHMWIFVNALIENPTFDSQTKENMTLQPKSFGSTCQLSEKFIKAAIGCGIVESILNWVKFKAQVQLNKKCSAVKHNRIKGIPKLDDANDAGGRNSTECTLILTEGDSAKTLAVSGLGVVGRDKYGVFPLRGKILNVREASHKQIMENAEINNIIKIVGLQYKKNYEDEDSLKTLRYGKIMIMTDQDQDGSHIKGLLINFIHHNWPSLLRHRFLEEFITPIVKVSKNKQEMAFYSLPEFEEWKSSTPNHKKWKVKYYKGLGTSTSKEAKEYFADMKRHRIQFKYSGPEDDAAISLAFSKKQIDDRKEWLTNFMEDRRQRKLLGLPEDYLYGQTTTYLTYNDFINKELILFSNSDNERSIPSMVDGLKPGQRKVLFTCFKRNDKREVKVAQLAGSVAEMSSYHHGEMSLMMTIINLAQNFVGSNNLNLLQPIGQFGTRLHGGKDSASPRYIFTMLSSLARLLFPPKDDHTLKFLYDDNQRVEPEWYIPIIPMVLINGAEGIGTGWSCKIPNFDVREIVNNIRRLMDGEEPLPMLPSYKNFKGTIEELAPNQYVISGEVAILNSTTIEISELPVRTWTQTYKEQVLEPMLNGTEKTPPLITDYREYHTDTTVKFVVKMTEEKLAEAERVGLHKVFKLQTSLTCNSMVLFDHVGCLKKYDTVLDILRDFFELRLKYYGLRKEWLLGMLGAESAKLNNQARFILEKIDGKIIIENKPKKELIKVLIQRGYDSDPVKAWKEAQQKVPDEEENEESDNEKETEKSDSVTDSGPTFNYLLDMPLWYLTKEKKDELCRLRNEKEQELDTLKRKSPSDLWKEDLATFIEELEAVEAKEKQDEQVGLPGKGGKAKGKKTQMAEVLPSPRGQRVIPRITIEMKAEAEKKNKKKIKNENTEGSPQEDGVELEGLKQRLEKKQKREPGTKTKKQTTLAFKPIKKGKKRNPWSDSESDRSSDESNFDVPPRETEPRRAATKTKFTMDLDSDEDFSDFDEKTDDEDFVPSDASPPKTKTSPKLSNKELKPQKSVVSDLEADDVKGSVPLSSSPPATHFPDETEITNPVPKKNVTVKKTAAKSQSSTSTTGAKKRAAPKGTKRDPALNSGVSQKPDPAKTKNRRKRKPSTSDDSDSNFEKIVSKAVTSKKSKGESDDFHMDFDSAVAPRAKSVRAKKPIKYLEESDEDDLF
Measurement Protocol: Mammalian Topoisomerase II Inhibition Assay (DNA-topo II complex formation)
Type: biochemical
Measurement Context: EC50 = concentration with activity equal to EC50 of reference mAMSA; read-out: TopoII Inh. EC50
In this section, each of the molecules is paired with its reported EC50.
Write the answer as a number in µM, unit excluded.

// below: answered molecules
Record request: EC50 value, item Cc1cc(-c2c(F)cc3c(=O)c(Cc4c[nH]cn4)cn(C4CC4)c3c2F)cc(C)n1 [Example 24] 1.6

Record request: EC50 value, item Cc1cc(-c2c(F)cc3c(=O)c(Cc4ccc[nH]4)cn(C4CC4)c3c2F)cc(C)n1 [Example 16] 5.1

Record request: EC50 value, item Cc1cc(-c2c(F)cc3c(=O)c(Cc4ccccc4NC(=O)C(F)(F)F)cn(C4CC4)c3c2F)cc(C)n1 [Example 22] 4.7

Pending molecule:
Record request: EC50 value, item Cc1cc(-c2c(F)cc3c(=O)c(Cc4ccncc4)cn(C4CC4)c3c2F)cc(C)n1 [Example 13] 9.1
